As shown below, each of these binders has a reported HEK-Blue activity, +100 nM BP, DF-1,000,000 value.
Target: T1, interleukin 18 binding protein (IL-18BP) (UniProt O95998 31-194); also: unit not given here
T1 sequence (looked up): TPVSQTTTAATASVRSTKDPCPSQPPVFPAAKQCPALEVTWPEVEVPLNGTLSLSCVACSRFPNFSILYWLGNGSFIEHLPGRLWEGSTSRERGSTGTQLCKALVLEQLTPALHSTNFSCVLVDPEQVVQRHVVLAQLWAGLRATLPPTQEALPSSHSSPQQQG
Test: cell-based or functional assay
ENDPOINT: HEK-Blue activity, +100 nM BP, DF-1,000,000

[
  {
    "BINDER": "IL-18 variant K53H, S55M, T63S (ligand) YFGKLESKLSVIRNLNDQVLFIDQGNRPLFEDMTDSDMRDNAPRTIFIISMYHDMQPRGMAVSISVKSEKISTLSSENKIISFKEMNPPDNIKDTKSDIIFFQRSVPGHDNKMQFESSSYEGYFLASEKERDLFKLILKKEDELGDRSIMFTVQNED",
    "READING": 0.11
  },
  {
    "BINDER": "IL-18 variant T34E, N41D, K53N, S55R (ligand) YFGKLESKLSVIRNLNDQVLFIDQGNRPLFEDMEDSDMRDDAPRTIFIISMYNDRQPRGMAVTISVKSEKISTLSSENKIISFKEMNPPDNIKDTKSDIIFFQRSVPGHDNKMQFESSSYEGYFLASEKERDLFKLILKKEDELGDRSIMFTVQNED",
    "READING": 0.09
  }
]
